Test: folding stability dG unfold from chymotrypsin proteolysis; higher = more stable

Record Sequence	Display Unit	folding stability dG unfold
SAGGSAGGSKITVERNEDGELFVRITFKDGKTITIKAKSVEELKEKLKELGFDVKVEVVERKPSAGGSAGGS [r20_124_TrROS_Hall]	kcal/mol	4.58
SAGGSAGGSAMEINEIVKETAKKGKNLTITVKLPDGSTVTITVTPDEDVPEDLEVLEVTVKSAGGSAGGSAG [r3_421_JUSTAS]	kcal/mol	1.78
SAGMKPEEVRVIEIPPGMTVEEIIEAIEKEGPLRIRVEGKELEFESKEDIEAAIRNAPEPVRIEVRRLSAGG [r19_95_TrROS_Hall]	kcal/mol	1.05
SAGGSAGGSGPMDDPVPPRFSVETSVSPVALPPEFVAYVAAHPEEVDAVYTTTVVVLEEGPAGSAGGSAGGS [r12_196_JUSTAS]	kcal/mol	-0.482
SMEITLLSTDPTPGGMTTALWETPNRKVTIFKPPSENYYIVTVEIPGTGKTKTLRFPKNVSPEEIVKKLGSA [r9_522_JUSTAS]	kcal/mol	1.55
SAGGMLVRVTLPSGETVELPVTSLDAAARRLREELGLPAGARLRVEVYDPVTGEVTEYELVIPVPEPVSAGG [r13_145_TrMRF]	kcal/mol	4.33
SSEELRELILNEAAKLGVKIKEIKVKEDPSTNTVSIEITVPDGKVIKLSFTRTSDGGYSYDINELKAGLESA [r9_85_JUSTAS]	kcal/mol	6.2

###

folding stability dG unfold values, listed per item
Assay: folding stability dG unfold from chymotrypsin proteolysis; higher = more stable
Measured Parameter: folding stability dG unfold (kcal/mol)

Record Sequence	Val
SAGGSAGGSAMSEEEKKKKKPKLEIKVKVEFTVDENGTVRAKVTFEDGTTLEVEIKLPPELLSAGGSAGGSA [r18_192_TrROS_Hall]	1.49
SAGGSAGGPNMYMFKLEIKWYDPGKGKPVATRPITVMVPEDDLPEILKNLPPGFEIKNITIFPMSAGGSAGG [r6_777_TrROS]	2.5
SAGGMTIITTTFTLKLPSNGKVVTVTKTYNLSPEEGKKEAEKIAKEIAEELKEPTEILEIKITYYPESAGGS [r16_140_JUSTAS]	2
SAGGMYKVKIYFEDTKEEIEIEASAEEVLEAIKNGDLDALKKLFPGAKIVKIEVEKVEPEPEEEEEEESAGG [r13_629_TrROS_Hall]	3.48

###

Test: folding stability dG unfold from chymotrypsin proteolysis; higher = more stable
folding stability dG unfold values, listed per item

Record Sequence	Display Unit	folding stability dG unfold
SAGGSAGGGYELRVTVYDPRTGKPVAEATFTATSPEEAEARFEEIRRALPPEYLVFAEIRPVPESAGGSAGG [r6_688_TrMRF]	kcal/mol	5.19
SAGGSAGGSAGTETKVLFIDENFESVEEAFQALRDLLPDNYKIEPLGVFPAKNKVVVLVTNPSAGGSAGGSA [r18_429_TrMRF]	kcal/mol	0.189
SAGGSAGGSAGGSMIVLRMSADEIKKLLPPGAKIKKIEYDEETDEVYVIIEFDKDGKIISAGGSAGGSAGGS [r4_435_TrROS_Hall]	kcal/mol	1.32
SAGGSALTIKVKDPEDIKDLEIQVYLPDGRPMLMKIEVQRDEGPPYVKIKAENPGNGKKRKETFPFSAGGSA [r15_1006_TrROS]	kcal/mol	0.0249

###

Test: folding stability dG unfold from chymotrypsin proteolysis; higher = more stable

Record Sequence	Display Unit	folding stability dG unfold
SAGGSAGGNKPIMVRIKIWHDNGKTRRFFVQIPEGFDDPSELASELAKEFNKQYPNYRIEVEPFSAGGSAGG [r6_132_TrROS]	kcal/mol	2.86
SMKKTIIIKVKKEDMTPEEIAKKLAELGYEVEIVDVEYDEETEEVYITVEIYDENGELIEKIEIKLPRKDSA [r9_879_TrROS_Hall]	kcal/mol	0.956
SAGGSKVEIWIRFGDYWIRITVEPKPNGRKKVSVEVYNPNGEPMWSITFEIDPDGKIKDIDITPMPSAGGSA [r2_260_TrROS]	kcal/mol	5.03
SMKYVKILLTLKGKPHVITIPSSLSLEEIIDKAIEFAKELGYKDIPKEELKILKVEENPDEEGSSSIIIGSA [r9_1053_TrMRF]	kcal/mol	3.74

###

Experiment: folding stability dG unfold from chymotrypsin proteolysis; higher = more stable

Record Sequence	Display Unit	folding stability dG unfold
SAGGSAGGSAGGKKKYIVVKVKVEVDENGNVTITLPNGKKITIPKEKVEVKPDGYLVIKLSAGGSAGGSAGG [r7_684_TrROS_Hall]	kcal/mol	2.05
SPSTTIPQTITLDTKLPNGKPATPEEVKAIAEEIVKKLEKEKGVKISINVKVTPVDSSGKYKLDITITIIKS [r1_231_JUSTAS]	kcal/mol	2.81
SAGKETVKLVVVNKETNKVVEVTFNKDGEIVSVKVFEVKPAPPPPPVELSEEQLVKTKDGKWRSLEELKSAG [r5_685_TrROS_Hall]	kcal/mol	1.19
SAGGMVIVVKTPGGATSITLGNLTITQDPSTGVAVAEATPEQVEALKKDPALKDIESIEILPEEELKSAGGS [r8_493_JUSTAS]	kcal/mol	0.648
SAGGSAGGSAGGSLKVEVTLDPETNELTVRTTLTLPPPPPPPPTTTTTTTTTLAPGETASAGGSAGGSAGGS [r10_86_TrROS_Hall]	kcal/mol	0.776
SMKIKIPVLIKVDPSETIEEVLEKVKEIAEEIAKFLESKGGPVEVKADVEPIPEIDYVIVTVEAYVPEEASA [r9_1161_TrMRF]	kcal/mol	1.8
SAMVVSEELSPEGTRTTTTFNPATGTSTTTTTPIPEEPPLPPVSIPTSLSPEEREALREELEAAGVPVVLGS [r1_242_JUSTAS]	kcal/mol	0.0811

###

folding stability dG unfold values, listed per item
Test: folding stability dG unfold (combined trypsin and chymotrypsin); higher = more stable

Record Sequence	Comparison Sign	folding stability dG unfold, kcal/mol
SAKKVEVKKIKVEVTFYDKNGKKVKKKKATITVVKVDGKYYVTIYDENTGKKYVFEFPSLEEAKKALKKSAG [r14_508_TrROS_Hall]	=	2.77
SPTLPFPFPDGHPYMIHLNPEKNEIHIHNPESGRPYRIKVPGGKERRIPAGADSLDELKDLPPLKIEPMPSA [r9_205_TrROS]	<	-1
SAGGALANLSPEEIAALLESQGYEVTILEVEEKPGERIVKIRVTVKREDGTVESVEEIELTLPAPDKLSAGG [r13_566_JUSTAS]	=	2.83
SAGGSAGGSAGGSSMSISVLEVRELPNGTLEITTVDYNPDNGYTTTTTYTLPPGQPLLISAGGSAGGSAGGS [r4_133_JUSTAS]	=	1.74

###

Experiment: folding stability dG unfold (combined trypsin and chymotrypsin); higher = more stable

Record Sequence	Display Unit	Comparison Sign	folding stability dG unfold
SAGGSAGGSAGGMKTYSVEELRARLEEEGKEPTLEELASLPGAKVELNKETKEATIVLKPSAGGSAGGSAGG [r7_180_TrROS_Hall]	kcal/mol	<	-1
SAGGSAGGSASSMVTVTVSVSPDEGDEEVAKEIAKELGRPDAKVTKITYDPATGTLTITLVDSAGGSAGGSA [r18_481_JUSTAS]	kcal/mol	=	1.58
SAGGGSDTVPPVPKATITFTLPAESPEEAEAAAEEIARELEEEGGIPATATVTTDPETGTVTVTITLESAGG [r13_517_TrMRF]	kcal/mol	=	0.855
SAGGSAGGSAGGMKITKVEVFERPDGYLVVKMEIELTNENGEKVKLELVFVFKPGEVIESAGGSAGGSAGGS [r10_1183_TrROS_Hall]	kcal/mol	=	4.72
SAGGKKETVKVTLEIEVNGKKYKIELTKNKDGTVTIKITDKNGKKIEIEIPMSPEDVKKLLEELLKKLSAGG [r13_296_TrROS_Hall]	kcal/mol	=	3.56
SAGKITIEYDKETNTVTVTIEIEIEVINEDGSIEKKKITITVKVKVDKKTNKVELLSLDEILKKLEELLSAG [r5_239_TrROS_Hall]	kcal/mol	=	3.81
SAGGSAGPSSKPIPLYVLFLEVTKPGGEKLPLVKLVKSPEEALKIAEEIASKGYEVKLVLAPASEISAGGSA [r15_906_TrMRF]	kcal/mol	=	2.88

###

Test: folding stability dG unfold from trypsin proteolysis; higher = more stable
Threshold rule: folding stability dG unfold greater than or equal to 1 kcal/mol is YES; below that, NO.

Record Sequence	Cat
SAGMSMSVSVTKDPNSNSITIKVTMPVEPDAVLDLPIKVEVPEKEYEMTVEVTLSPDGLASMTGTITLPSAG [r5_596_JUSTAS]	YES
SAGGSAGGSPDNITFKVPDGPVRIENGNNEQEFPPGKTQTIPPKNPNNMRIEAFPPNIIKITPSAGGSAGGS [r20_150_TrROS]	NO
SAGGSAGGWIRVDKVEPNPNDDMATVSVEMEDPGDGKKKKFNMTMPSDNPELIDKLPPGDWIEFSAGGSAGG [r6_979_TrROS]	NO
SAMEKVYIKVKFEVEGDPNGKEKKTIELIVENPDPNIGKEKLLEIAKEAVEKFAKENGYKVKISEVEIGSAG [r14_190_TrMRF]	YES
SAGGSAGGSMTVTYTEVGDQLVVTTPDGRRYVITLSGDVTYDPATGTVTVPPGETMTPVPVPASAGGSAGGS [r20_158_JUSTAS]	YES
SAGGMPENMKWRPIPFTQKNPDGLTLKMKIWVFPDPYILIEHEVEDNGKPVAEIPILLPADDPEDLKSAGGS [r16_714_TrROS]	NO
SAGSMPPSTTTSEEVTVGGKKVKRTTTVYRAPNGTPSVTSTYTLGETPGVEDPLSGKALTPEERAAAAASAG [r5_138_JUSTAS]	NO
SAGGSAGGKYEIVEVEEKEVNGEKYLIFKVKNENGEELLITVSKEDAEKILASLPPGATVEILPSAGGSAGG [r6_111_TrROS_Hall]	YES
SAGGSAGGLEEELKLAKENPGEFEGVTVKLESVIEVTTTDPTTGKPTTKLVRVESEITFPPGLKSAGGSAGG [r6_560_JUSTAS]	NO
SAGGSAGGSAGMVKLRFEVKFKIKLLGEGETNEVVEVDVKVEFEVTLPPFKVRPDGSLLESAGGSAGGSAGG [r11_558_TrMRF]	YES
EKKTLTVLIEVPPEKLEEALARALELAKALPPGQKLEIEIVNEDGTVVRVTVTVDENGEIHIDVEVLPRPPS [r1_350_TrROS_Hall]	YES
SAGGSAGGSAGGPKVEIVEVTVEGDKVTIRVKNEETGEWVTLEVTLKDLPKVTFVLKPKSAGGSAGGSAGGS [r10_655_TrROS_Hall]	YES
SKTIYIPKNVPIDYILKVVKEAEKKGKPVKIVIETYNNPKVIEALKKAGYKVEIKEDKKKKITLIVVYPESA [r9_759_TrMRF]	YES
